# Test Target: T1, GST-CRN-6 (C. elegans, UniProt P08515 1-218 = GST; P34508 1-373)
# T1 construct: Two crn-6 cDNAs (700 bp and 1.1 kb) were isolated; the longer one made the GST fusion; also called CRN-6 GST-fusion protein
# T1 sequence (P08515 1-218, tags or fused parts left off): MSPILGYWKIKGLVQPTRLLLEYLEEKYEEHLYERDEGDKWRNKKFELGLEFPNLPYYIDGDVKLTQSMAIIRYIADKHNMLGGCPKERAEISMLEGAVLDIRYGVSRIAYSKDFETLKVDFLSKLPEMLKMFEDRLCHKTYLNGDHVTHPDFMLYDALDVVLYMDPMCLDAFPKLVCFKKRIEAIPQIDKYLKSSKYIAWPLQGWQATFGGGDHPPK
# Assay Comment: GST pull-down, 35S-Met protein vs GST fusion; - means no detectable binding (footnote a)

>  <Binder>
^35S-Methionine labeled CRN-2 (enzyme, C. elegans) MALYELVDIGANLGHPSYQKDLNDVLDRAKQAGLSKIMVTGTSEKISHECADLVEKYPGFLYFTAGVHPHDAKDWNDGTLEALKKLQENPSCVAVGECGLDFNRNFSPQDVQKEVFAKQVDMAVKLQKPLFIHEREAHEDMVKILTAAGPSLPPAVIHCFTGTVVEAKKYLEMGFYIGLTGFLWKDRSDNGVQAGLRSGEIPIEKLVLETDAPYMYPKINDKKIPKEIKSLITPETEALHNFSSFNRNEPCSLAAVCELVAAFAGRDPKEVAKITTENAKKVYKLE

>  <binding result>
no binding

$$$$
>  <Binder>
^35S-Methionine labeled CRN-5 (enzyme, C. elegans) MAGRLREMRCELSFLKNADGSACFSQGATCIWASCSGPGDVHASKASDEAMTLDISYRANCGDNKFNVLNNIIHSTLSNAINLELFPHTTISVTVHGIQDDGSMGAVAINGACFALLDNGMPFETVFCGVLIVRVKDELIIDPTAKQEAASTGRVLFSVCKGSDGHPEVCAMDAIGHWDFIQLEAAWSLAQPSASAIFDFYKTVMKRKLSVDEQ

>  <binding result>
no binding

$$$$

Where these numbers come from: patent US20050142568A1
